Attribute: pIC50
assayed.target: SARS2 protease (Severe acute respiratory syndrome coronavirus 2)
assay.explanation: SARS-CoV-2 protease inhibition assay (SARS2 FRET protease assay)
Assay type: biochemical
reported.conditions: Table E; SARS-CoV-2 protease inhibition; read-out: IC50
Procedure: Viral protease assays: The antiviral activities of inhibitors were determined by FRET (Fluorescence Resonance Energy Transfer) assay. Purified viral protease was incubated with the protease substrate peptide (Edans-DFHLQ/GP-Dabcyl) and inhibitor, and IC50 values were subsequently determined by the fluorescence signals. The SARS2 FRET protease assay was performed in 20 mM HEPES-Na pH 7, 120 mM NaCl, 0.4 mM EDTA, 0.01% Triton, 5% glycerol, and 4 mM DTT. […]
pIC50: −log10 of the molar value.

>>> readout_value("CCCCCCCC1CC/C=C/CC(C(=O)NC)C[C@@H](C(=O)N(C)OC)NC(=O)C(CC(C)C)NC(=O)O1 (single isomer, unassigned) [Compound B37]")
"< 3.70"

Query: Sample CCOP(=O)(OCC)C(O)[C@H](CCC(=O)N1CCOC(c2ccccc2)C1)NC(=O)[C@H](CC1CCCCC1)NC(=O)OCc1cccc(Cl)c1 (stereo partly drawn) — what was its pIC50?
Response: 4.72

Query: Sample CCNC(=O)OCCN(C)C(=O)CC[C@@H](CO)NC(=O)[C@H](CC1CCCCC1)NC(=O)OCc1cccc(Cl)c1 — what was its pIC50?
Response: < 3.70

Query: Sample CCCCCCC1CCC/C=C\CC(C(=O)N(C)C)CC(C(=O)N(C)OC)NC(=O)C(CC(C)C)NC(=O)C1 (stereo in doubt) — what was its pIC50?
Response: < 3.70

Query: Sample CCOP(=O)(OCC)C(O)[C@H](CC(C)C(=O)N(C)CCc1ccccc1)NC(=O)[C@H](CC1CCCCC1)NC(=O)OCc1cccc(Cl)c1 (stereo partly drawn) — what was its pIC50?
Response: < 3.70

Query: Sample CN(CCc1cccc(Cl)c1)C(=O)CC[C@@H](C=O)NC(=O)[C@H](CC1CCCCC1)NC(=O)OCc1cccc(Cl)c1 (stereo in doubt) — what was its pIC50?
Response: < 3.70
